- System tested: PI3K γ (p110γ) (Homo sapiens, UniProt P48736)
- Construct: purchased Upstate / Millipore Corporation
- Sequence (P48736 whole entry): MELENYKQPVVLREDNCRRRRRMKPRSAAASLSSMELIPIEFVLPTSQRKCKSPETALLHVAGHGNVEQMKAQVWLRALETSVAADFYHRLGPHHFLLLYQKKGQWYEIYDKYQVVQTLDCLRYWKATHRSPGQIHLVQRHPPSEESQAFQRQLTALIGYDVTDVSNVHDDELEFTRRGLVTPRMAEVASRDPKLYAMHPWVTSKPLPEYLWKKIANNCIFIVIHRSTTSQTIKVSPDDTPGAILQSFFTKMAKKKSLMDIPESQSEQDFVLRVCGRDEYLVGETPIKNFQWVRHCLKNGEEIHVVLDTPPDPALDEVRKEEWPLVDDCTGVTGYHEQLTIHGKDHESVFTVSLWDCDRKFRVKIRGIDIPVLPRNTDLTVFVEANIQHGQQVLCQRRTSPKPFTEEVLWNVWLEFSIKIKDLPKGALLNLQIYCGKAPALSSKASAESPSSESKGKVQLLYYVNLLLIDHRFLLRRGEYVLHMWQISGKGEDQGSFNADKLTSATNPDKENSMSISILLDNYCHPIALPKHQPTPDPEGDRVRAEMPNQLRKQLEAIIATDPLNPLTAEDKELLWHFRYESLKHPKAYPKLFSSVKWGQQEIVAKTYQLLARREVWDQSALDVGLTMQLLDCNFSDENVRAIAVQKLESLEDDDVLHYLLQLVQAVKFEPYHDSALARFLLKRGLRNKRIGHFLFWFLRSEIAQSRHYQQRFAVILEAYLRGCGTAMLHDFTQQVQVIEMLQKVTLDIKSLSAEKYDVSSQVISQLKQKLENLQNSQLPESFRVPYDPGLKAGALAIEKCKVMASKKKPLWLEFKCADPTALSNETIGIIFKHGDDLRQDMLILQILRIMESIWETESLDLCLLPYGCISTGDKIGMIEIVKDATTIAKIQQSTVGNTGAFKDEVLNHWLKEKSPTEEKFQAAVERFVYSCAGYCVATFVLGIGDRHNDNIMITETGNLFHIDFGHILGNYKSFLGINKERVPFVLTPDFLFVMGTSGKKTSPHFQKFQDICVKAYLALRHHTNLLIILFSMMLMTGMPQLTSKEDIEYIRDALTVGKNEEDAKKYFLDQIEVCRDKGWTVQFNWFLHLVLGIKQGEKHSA
- Measurement notes: PI 3-Kinase (human) HTRF assay, PI3K γ
- Type: biochemical
- Recorded conditions: read-out: PI3K γ IC50
Parameter: IC50

{"Compound": "Nc1nc2cc(-c3cnc4ccc(C(=O)N5C6CCC5COC6)cn34)ccc2o1 [Compound 540]", "IC50": "> 10 µM"}
{"Compound": "CN1CCN(C(=O)c2cnc3ccc(-c4ccc5oc(N)nc5c4)nn23)CC1 [Compound 104]", "IC50": "< 10 µM"}
{"Compound": "Nc1nc2cc(-c3ccc4ncc(C(=O)N5CCOCC5)n4c3)ccc2s1 [Compound 126]", "IC50": "< 1 µM"}
{"Compound": "CCN1CCN(c2cnc3ccc(-c4ccc5oc(N)nc5c4)cc3n2)CC1 [Compound 152]", "IC50": "< 1 µM"}

Exercise: Query: IC50; subject: Nc1nc2cc(-c3ccc4ncc(N5CCNC(C(F)F)C5)nc4c3)ccc2o1 (stereo not shown) [Compound 413]
Key: < 1 µM

Exercise: What IC50 value was documented for this compound, Nc1nc2cc(-c3ccc4ncn(C5CCOCC5)c(=O)c4c3)ccc2o1 [Compound 55] ?
Key: > 10 µM

Exercise: # input compound: CN1CCN(C(=O)c2cnn3ccc(-c4ccc5oc(N)nc5c4)cc23)CC1 [Compound 380] ; wanted: its IC50
Key: < 10 µM

----------
- System tested: PI3K δ (Homo sapiens, UniProt O00329)
- Construct: purchased Upstate / Millipore Corporation
- Sequence (O00329 whole entry, one chain of several): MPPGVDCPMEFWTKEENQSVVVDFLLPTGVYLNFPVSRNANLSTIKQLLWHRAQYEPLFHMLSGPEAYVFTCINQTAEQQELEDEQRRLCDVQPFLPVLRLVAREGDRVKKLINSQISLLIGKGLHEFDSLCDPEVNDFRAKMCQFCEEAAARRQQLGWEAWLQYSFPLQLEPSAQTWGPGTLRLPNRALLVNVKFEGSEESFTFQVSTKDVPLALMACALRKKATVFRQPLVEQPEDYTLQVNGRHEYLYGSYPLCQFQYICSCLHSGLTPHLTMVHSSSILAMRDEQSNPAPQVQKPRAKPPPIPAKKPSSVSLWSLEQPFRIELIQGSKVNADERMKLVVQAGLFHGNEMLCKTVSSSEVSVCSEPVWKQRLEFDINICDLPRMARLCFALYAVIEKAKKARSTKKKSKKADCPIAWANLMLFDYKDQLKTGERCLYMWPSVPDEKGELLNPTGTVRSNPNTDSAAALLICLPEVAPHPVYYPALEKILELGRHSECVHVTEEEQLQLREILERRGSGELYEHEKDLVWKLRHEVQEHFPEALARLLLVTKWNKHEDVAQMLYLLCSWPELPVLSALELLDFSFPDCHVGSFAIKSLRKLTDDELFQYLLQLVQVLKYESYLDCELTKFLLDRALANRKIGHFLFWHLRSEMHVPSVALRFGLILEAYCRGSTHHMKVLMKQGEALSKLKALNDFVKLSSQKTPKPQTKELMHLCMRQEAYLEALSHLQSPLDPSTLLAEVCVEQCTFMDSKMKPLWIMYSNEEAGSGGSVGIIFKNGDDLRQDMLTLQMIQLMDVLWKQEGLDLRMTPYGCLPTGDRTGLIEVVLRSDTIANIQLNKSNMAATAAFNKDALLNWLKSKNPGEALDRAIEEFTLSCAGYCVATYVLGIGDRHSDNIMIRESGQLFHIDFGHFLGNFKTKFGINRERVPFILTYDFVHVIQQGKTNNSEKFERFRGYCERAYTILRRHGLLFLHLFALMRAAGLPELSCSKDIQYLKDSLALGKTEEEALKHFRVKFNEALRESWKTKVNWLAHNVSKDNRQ
- Measurement notes: PI 3-Kinase (human) HTRF assay, PI3K δ
- Assay type: biochemical
- Recorded conditions: read-out: PI3K δ IC50
List of IC50 values.

Would you please look over these solved cases?
{"Molecule": "Nc1nc2cc(-c3ccc4ncc(N5CC(n6ccnc6)C5)nc4c3)ccc2o1", "System tested": "PI3K δ (Homo sapiens, UniProt O00329)", "IC50": "< 10 µM"}
{"Molecule": "CC1(C)CN(C2CN(C(=O)c3cnc4ccc(-c5ccc6oc(N)nc6c5)cn34)C2)CCN1", "System tested": "PI3K δ (Homo sapiens, UniProt O00329)", "IC50": "< 0.1 µM"}
{"Molecule": "Nc1nc2cc(-c3ccc4ncc(N5CCN(CC6CC6)CC5=O)nc4c3)ccc2o1", "System tested": "PI3K δ (Homo sapiens, UniProt O00329)", "IC50": "> 10 µM"}

Exercise: Form field: reported IC50 of `Cc1ccn(C2CN(c3cnc4ccc(-c5ccc6oc(N)nc6c5)cc4n3)C2)n1`
Key: < 10 µM

Exercise: Data request, read-out IC50, for `C[C@H]1CN(C2CN(c3cnc4ccc(-c5ccc6oc(N)nc6c5)cc4n3)C2)CCN1`
Key: < 10 µM

Exercise: Request the reported IC50 associated with `COC1CN(C(=O)c2cnc3ccc(-c4ccc5oc(N)nc5c4)cn23)C1`
Key: < 10 µM

Exercise: For `Nc1nc2ccc(-c3ccc4nnc(-c5cccnc5)n4c3)cc2o1` , what is its reported IC50?
Key: > 10 µM

Exercise: // lookup IC50 for `CN1CC(n2cnc3ccc(-c4ccc5oc(N)nc5c4)cc3c2=O)C1`
Key: > 10 µM

----------
- System tested: PI3K γ (p110γ) (Homo sapiens)
- Construct: purchased Upstate / Millipore Corporation
- Measurement notes: PI 3-Kinase (human) HTRF assay, PI3K γ
- Format: biochemical
- Recorded conditions: Table 4 (PI3K α inhibitors); read-out: PI3K γ IC50
Reported values of IC50 for individual entries

Worked cases, answers included:
{"Molecule": "Nc1nc2cc(-c3ccc4ncc(N5CCN(C(=O)C6(N)CC6)CC5)nc4n3)ccc2o1", "System tested": "PI3K γ (p110γ) (Homo sapiens)", "Recorded measurement": "< 100 nM"}
{"Molecule": "C[C@@H]1CN(C2CN(c3cnc4ccc(-c5ccc6oc(N)nc6c5)nc4c3)C2)CCN1", "System tested": "PI3K γ (p110γ) (Homo sapiens)", "Recorded measurement": "< 1000 nM"}
{"Molecule": "CC1(C)CN(C2CN(c3cnc4ccc(-c5ccc6oc(N)nc6c5)nc4c3)C2)CCN1", "System tested": "PI3K γ (p110γ) (Homo sapiens)", "Recorded measurement": "< 1000 nM"}

Exercise: Hello, I am looking for reported IC50 with PI3K γ (p110γ) (Homo sapiens) for `Nc1nc2cc(-c3ccc4ncc(N5CCC(O)CC5)nc4n3)ccc2o1` . Could you help?
Key: < 100 nM

----------
- System: T47D
- Measurement notes: T47D proliferation
- Type: cell-based
- Recorded conditions: Homo sapiens; T47D cell line
Parameter: IC50

{"Compound": "Nc1nc2cc(-c3ccc4ncc(-c5ccncc5)n4n3)ccc2o1 [Compound 10]", "Parameter": "IC50", "Recorded measurement": "< 1 µM"}

Exercise: Value lookup for IC50; key = CN1CCN(c2ccc(-c3cnc4ccc(-c5ccc6oc(N)nc6c5)cn34)cn2)CC1 [Compound 42]
Key: < 10 µM

Exercise: For Nc1nc2cc(-c3ccc4ncc(OC5CCOCC5)nc4c3)ccc2o1 [Compound 49] , what is its reported IC50?
Key: < 10 µM

Exercise: Please look up its IC50: Cc1nc2ccc(-c3ccc4oc(N)nc4c3)nn2c1-c1ccncc1 [Compound 56]
Key: < 10 µM

Exercise: Item under review: Nc1nc2cc(-c3ccc4ncc(-c5ccncc5)n4c3)ccc2o1 [Compound 6] . Reported IC50?
Key: < 1 µM

----------
Listing: pIC50 of selected compounds
- System tested: PI3K δ (Homo sapiens)
- Construct: purchased Upstate / Millipore Corporation
- Measurement notes: PI 3-Kinase (human) HTRF assay, PI3K δ
- Type: biochemical
- Recorded conditions: Table 4 (PI3K α inhibitors); read-out: PI3K δ IC50
pIC50: −log10 of the molar value.

Below: 3 compounds and their reported pIC50.
{"Molecule": "CC1(C)CN(C2CN(c3cnc4ccc(-c5ccc6oc(N)nc6c5)nc4n3)C2)CCO1", "pIC50": "< 5.00"}
{"Molecule": "NCC(=O)N1CCN(c2cnc3ccc(-c4ccc5oc(N)nc5c4)nc3c2)CC1", "pIC50": "> 6.00"}
{"Molecule": "C[C@@H]1COCCN1C1CN(c2cnc3ccc(-c4ccc5oc(N)nc5c4)nc3n2)C1", "pIC50": "< 5.00"}

Exercise: Under PI3K δ (Homo sapiens): pIC50 value of `C[C@H](N)C(=O)N1CCN(c2cnc3ccc(-c4ccc5oc(N)nc5c4)nc3n2)CC1` ?
Key: > 7.00

Exercise: Hi! What's the reported pIC50 for `Nc1nc2cc(-c3ccc4ncc(N5CC(N6CCNCC6)C5)nc4n3)ccc2o1` on PI3K δ (Homo sapiens)?
Key: < 5.00

Exercise: Please tell me: pIC50 of `Nc1nc2cc(-c3ccc4ncc(N5CCN(C(=O)C6(N)CC6)CC5)cc4n3)ccc2o1` , system PI3K δ (Homo sapiens)?
Key: > 6.00

Exercise: For the record `Nc1nc2cc(-c3ccc4ncc(N5CCN(C(=O)C6(N)CC6)CC5)nc4n3)ccc2o1` , what value of pIC50 is listed for PI3K δ (Homo sapiens)?
Key: > 5.00

Exercise: // map `CC(C)N1CCN(c2cnc3ccc(-c4ccc5oc(N)nc5c4)nc3c2)CC1` to recorded pIC50 (system: PI3K δ (Homo sapiens))
Key: > 6.00

Exercise: Form: Entry = `C[C@H]1CN(C2CN(c3cnc4ccc(-c5ccc6oc(N)nc6c5)nc4c3)C2)CCN1` | System = PI3K δ (Homo sapiens) | pIC50 = ____
Key: > 6.00

----------
Reported pIC50 is given for each of the following compounds.
- System tested: PI3K α (p110α/p85α) (Homo sapiens, UniProt P42336)
- Construct: purchased Upstate / Millipore Corporation
- Sequence (P42336 whole entry): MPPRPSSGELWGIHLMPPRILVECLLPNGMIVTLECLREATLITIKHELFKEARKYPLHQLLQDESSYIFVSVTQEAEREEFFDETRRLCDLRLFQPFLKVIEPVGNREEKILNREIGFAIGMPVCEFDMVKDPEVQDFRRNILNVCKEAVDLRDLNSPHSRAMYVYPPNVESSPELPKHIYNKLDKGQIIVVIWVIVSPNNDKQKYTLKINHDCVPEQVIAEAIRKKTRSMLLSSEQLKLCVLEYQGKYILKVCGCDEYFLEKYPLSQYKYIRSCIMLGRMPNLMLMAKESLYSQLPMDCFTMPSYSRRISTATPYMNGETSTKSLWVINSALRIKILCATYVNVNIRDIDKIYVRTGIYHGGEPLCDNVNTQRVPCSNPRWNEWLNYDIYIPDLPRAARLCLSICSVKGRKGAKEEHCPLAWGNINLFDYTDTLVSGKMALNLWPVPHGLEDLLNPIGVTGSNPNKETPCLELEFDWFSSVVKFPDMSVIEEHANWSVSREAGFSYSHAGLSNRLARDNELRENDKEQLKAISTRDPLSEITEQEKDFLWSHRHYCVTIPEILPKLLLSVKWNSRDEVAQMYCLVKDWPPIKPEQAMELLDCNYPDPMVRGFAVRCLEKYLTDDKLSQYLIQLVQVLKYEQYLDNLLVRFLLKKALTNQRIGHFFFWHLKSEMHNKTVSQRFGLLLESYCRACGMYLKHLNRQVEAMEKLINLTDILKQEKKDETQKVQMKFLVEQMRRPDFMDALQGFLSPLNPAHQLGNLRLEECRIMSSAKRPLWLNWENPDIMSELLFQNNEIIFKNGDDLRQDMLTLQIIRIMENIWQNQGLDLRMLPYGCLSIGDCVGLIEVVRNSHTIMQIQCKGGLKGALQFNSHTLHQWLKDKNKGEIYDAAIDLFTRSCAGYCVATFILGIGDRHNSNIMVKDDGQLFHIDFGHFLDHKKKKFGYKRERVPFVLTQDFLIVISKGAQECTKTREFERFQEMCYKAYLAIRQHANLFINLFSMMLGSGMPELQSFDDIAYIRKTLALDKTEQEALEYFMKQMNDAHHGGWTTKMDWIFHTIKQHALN
- Sequence (P27986 whole entry partner): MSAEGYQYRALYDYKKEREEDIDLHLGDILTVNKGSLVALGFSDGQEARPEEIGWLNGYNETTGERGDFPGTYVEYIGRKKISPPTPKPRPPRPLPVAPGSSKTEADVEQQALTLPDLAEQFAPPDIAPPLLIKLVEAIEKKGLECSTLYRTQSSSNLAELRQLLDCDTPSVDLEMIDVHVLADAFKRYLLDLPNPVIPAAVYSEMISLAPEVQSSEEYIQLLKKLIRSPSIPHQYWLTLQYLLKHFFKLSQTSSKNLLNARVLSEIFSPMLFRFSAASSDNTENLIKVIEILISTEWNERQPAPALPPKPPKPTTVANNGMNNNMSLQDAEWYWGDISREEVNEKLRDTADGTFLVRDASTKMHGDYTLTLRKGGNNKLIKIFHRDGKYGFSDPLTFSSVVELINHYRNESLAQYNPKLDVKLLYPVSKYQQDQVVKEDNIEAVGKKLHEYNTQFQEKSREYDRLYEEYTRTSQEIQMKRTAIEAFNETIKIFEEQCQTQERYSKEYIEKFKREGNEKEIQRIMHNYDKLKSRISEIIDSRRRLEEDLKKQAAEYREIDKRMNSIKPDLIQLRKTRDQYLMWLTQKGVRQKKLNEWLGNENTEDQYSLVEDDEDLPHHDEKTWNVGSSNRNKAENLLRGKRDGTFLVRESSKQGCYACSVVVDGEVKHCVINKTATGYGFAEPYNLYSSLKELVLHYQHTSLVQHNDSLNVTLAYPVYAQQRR
- Measurement notes: PI 3-Kinase (human) HTRF assay, PI3K α
- Type: biochemical
- Recorded conditions: read-out: PI3K α IC50
pIC50: −log10 of the molar value.

Exercise: Look up pIC50 with PI3K α (p110α/p85α) (Homo sapiens, UniProt P42336) for this compound: `CC1(C)CN(c2cnc3ccc(-c4ccc5oc(N)nc5c4)cc3n2)CCN1`
Key: > 6.00

Exercise: Any idea what pIC50 came out for `Cn1cc(-c2cnc3ccc(-c4ccc5oc(N)nc5c4)cc3n2)cn1` on PI3K α (p110α/p85α) (Homo sapiens, UniProt P42336)?
Key: > 7.00

Exercise: Identify the measured pIC50 of `Nc1nc2cc(-c3ccc4ncc(N5CC[C@H](O)C5)nc4c3)ccc2o1` for PI3K α (p110α/p85α) (Homo sapiens, UniProt P42336).
Key: > 7.00

Exercise: Please tell me: pIC50 of CC1CN(c2cnc3ccc(-c4ccc5oc(N)nc5c4)cc3n2)CC(C)N1 (centres unmarked) , system PI3K α (p110α/p85α) (Homo sapiens, UniProt P42336)?
Key: > 6.00

Exercise: Give pIC50 (PI3K α (p110α/p85α) (Homo sapiens, UniProt P42336)) of the following compound: `Nc1nc2cc(-c3ccc4ncc(C(=O)N5CC6CCC(C5)O6)n4c3)ccc2o1`
Key: > 6.00

Exercise: Give recorded pIC50 with PI3K α (p110α/p85α) (Homo sapiens, UniProt P42336) for the following compound: `O=C(c1cnc2ccc(-c3ccc4c(Nc5ccccc5)nsc4c3)cn12)N1CCOCC1`
Key: < 5.00

Exercise: # returns recorded pIC50 (system: PI3K α (p110α/p85α) (Homo sapiens, UniProt P42336)) for `CC(=O)Nc1nc2ccc(-c3cc(F)c4oc(N)nc4c3)cc2s1`
Key: > 7.00
